# Test system: A549 cells
# test summary: BOOM conversion: prodrug + metal resins in cell culture, cell viability, A549
# Assay type: cell-based, human
# condition label: Homo sapiens, 120 h, prodrug in combination with Pd0-resins 1 mg/mL, 5 days, read-out: EC50, prodrug + Pd-resins
quantity: EC50

Notebook: pull reported EC50 for A549 cells, entry C#CCOc1ccc(CONC(=O)CCCCCCC(=O)Nc2ccccc2)cc1
10.5 µM

---

# Tested on: U87G cells
# test summary: Prodrug safety dose-response cell viability (PrestoBlue), U87G
# Format: cell-based, human
# condition label: U87G cells, 5 days, no catalyst; read-out: EC50 (cell viability)
quantity: EC50
Field note: include the unit after the figure.

Please look up its EC50: CCc1c2c(nc3ccc(O)cc13)-c1cc3c(c(=O)n1C2)COC(=O)[C@]3(O)CC [SN-38, 10-Hydroxy-7-ethylcamptothecin, reference compound]
24.6 nM
